B1: TRAF3IP2 (parent)
chain: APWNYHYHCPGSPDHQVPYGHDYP

Variants of: B1
test-protocol: protein stability index of a GFP-peptide fusion (GPS, HEK-293T) (PSI 1-6); higher = more stable;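 note: lentivirally expressed fusions sorted by FACS into six bins by GFP to DsRed ratio, PSI derived from sequencing read proportions per bin multiplied by bin number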
details: c terminus: a fixed tail appended
quantity-name: protein stability index
Write the value as a bare number.

Take a look at these entries with their results.
{"biosequence": "APWNYHYHCPGSPDHRVPYGHDYP", "recorded-number": 2.02}
{"biosequence": "APWNYHYHCPGSPDLQVPYGHDYP", "recorded-number": 1.95}

Form field protein stability index, entry APWNYHYHCPGSPDCQVPYGHDYP : 1.97

Form field protein stability index, entry APWNYTYHCPGSPDHQVPYGHDYP : 2.94

Form field protein stability index, entry APWNYHFHCPGSPDHQVPYGHDYP : 2.4
